Where do the numbers come from? From PubChem BioAssay (NCATS).

assayComment: qHTS Screen of the MIPE 4.0 Collection Against Ewings Sarcoma (TC32) (AID 1259256); note: potency is the fitted concentration of half-maximal effect; nearly all actives have a fitted effect of over 45% in size
conditionParameters: TC32 Ewing sarcoma viability, CellTiter-Glo, 48 h; series mostly up to 45.8 µM
Records with an inconclusive call do not appear. Calls of active or inactive are those of the source. Calls come from the whole dose curve; as a rule, active = well fitted inhibition curve with a large enough effect; inconclusive = small, poorly fitted or top-dose-only effect; inactive = no such curve, though single readings can be large or run the other way.
Field: Potency. Provide a value for each of the molecules that follow.

Field: Potency. Fill in for each record below.
1. CCc1cnn2c(NCc3ccc[n+]([O-])c3)cc(N3CCCC[C@@H]3CCO)nc12
2. FC(F)(F)c1ccc(Nc2nc3ccc(Oc4ccnc(-c5ncc(C(F)(F)F)[nH]5)c4)cc3[nH]2)cc1
3. O=C1NC(=O)[C@@H](c2cn3c4c(cccc24)CCC3)[C@H]1c1c[nH]c2ccccc12
4. N#CC(=Cc1ccc(O)c(O)c1)C(=O)NCc1ccccc1
5. COc1cccc2c1C(=O)c1c(O)c3c(c(O)c1C2=O)C[C@@](O)(C(C)=O)C[C@H]3O[C@H]1C[C@H](N)[C@H](O)[C@H](C)O1
6. CC(C)C[C@H](NC(=O)CNC(=O)c1cc(Cl)ccc1Cl)B1OC(=O)CC(CC(=O)O)(C(=O)O)O1 (stereo partly drawn)

Result:
1. 23.5 nM (active)
2. 9350 nM (active)
3. 166 nM (active)
4. 20900 nM (active)
5. 46.9 nM (active)
6. 332 nM (active)

Task: Can you share its Potency? I mean this molecule: O=C1NC(=O)C(=Cc2ccc3nccc(-c4ccncc4)c3c2)S1
Result: 74.3 nM (active)

----------
assayComment: qHTS profiling of the MIPE4 collection as inhibitors of Plasmodium falciparum (HB3) proliferation (AID 743347);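 note: plate controls were DMSO vehicle wells for no effect and artemisinin wells for full effect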
conditionParameters: P. falciparum HB3 in erythrocytes, SYBR Green DNA, 72 h; at 28.5 µM (top of the series) unless noted
Field: growth, % of control. Provide a value for each of the compounds that follow.
Answers are plain numbers, in %.

# annotated cases, reported growth, % of control shown
compound: O=C(c1ccc(F)cc1)N1CCC[C@H](c2nc(-c3ccc(F)cc3)no2)C1
endpointResult: 82.2
//
compound: CC(C)C[C@H](NC(=O)CNC(=O)c1cc(Cl)ccc1Cl)B1OC(=O)CC(CC(=O)O)(C(=O)O)O1 (some centres undefined)
endpointResult: 8.02
//
compound: c1cncc(CN2CCC(n3ncc4c(N5CCOCC5)nc(-c5ccc6[nH]ccc6c5)nc43)CC2)c1
endpointResult: 8.55
//
compound: N#Cc1ccc(COC[C@H]2O[C@@H](n3c(NCc4ccc(Cl)c(Cl)c4)nc4c(N)ncnc43)[C@@H](O)[C@@H]2O)cc1
endpointResult: 23.2
//
compound: CN1C(C(=O)Nc2ccccn2)=C(O)c2sc(Cl)cc2S1(=O)=O
endpointResult: 69.3
//
compound: COc1cc2ncnc(Nc3cccc(Br)c3)c2cc1OC
endpointResult: 8.18

Field: growth, % of control. Fill in for each record below.
1. CCOC(=O)[C@H](CCc1ccccc1)N[C@@H](C)C(=O)N1[C@@H](C(=O)O)C[C@H]2CCC[C@@H]21
2. c1ccc(CNc2nc(NCc3ccccc3)c3ccccc3n2)cc1
3. OCCN1C[C@H](O)[C@@H](O)[C@H](O)[C@@H]1CO
4. C#C[C@]1(O)CC[C@@H]2[C@@H]3CCc4cc(O)ccc4[C@H]3CC[C@@]21C

Result:
1. 4.34
2. 8.52
3. 97.8
4. 89.8

----------
Tested on: KB-3-1
assayComment: Cytotoxic Profiling of Annotated Libraries Using Quantitative High-Throughput Screening (AID 1296008); note: nearly all actives have a fitted effect of over 60% in size; note: potency is the fitted concentration of half-maximal effect
conditionParameters: Five cell lines viability, CellTiter-Glo ATP luminescence, 48-72 h
Inconclusive results are not listed. Calls of active or inactive are those of the source. Calls follow the shape of the dose curve; as a rule, active = well fitted inhibition curve with a large enough effect; inconclusive = small, poorly fitted or top-dose-only effect; inactive = flat fitted curve, though single readings scatter.
measuredQuantity: Potency

smilesInput: C#C[C@]1(O)CC[C@@H]2[C@@H]3CCc4cc(O)ccc4[C@H]3CC[C@@]21C
endpointResult: 20.9 µM (active)
//
smilesInput: C[C@@]12C[C@@]3(O)O[C@@H](O1)[C@]1(COC(=O)c4ccccc4)[C@@H]3C[C@@]12O[C@@H]1O[C@H](CO)[C@@H](O)[C@H](O)[C@@H]1O
endpointResult: inactive
//
smilesInput: Cc1cn([C@@H]2O[C@H](CO)[C@@H](O)[C@H]2F)c(=O)[nH]c1=O
endpointResult: inactive

----------
Tested on: MKL-2
assayComment: qHTS assay to identify novel small-molecules to repurpose for Merkel cell carcinoma treatment (AID 1296009); note: nearly all actives have a fitted effect of over 60% in size; note: potency is the fitted concentration of half-maximal effect
conditionParameters: MCC and control cell lines, CellTiter-Glo viability, 72 h; series mostly up to 46 µM
From the text: MCC is a rare and aggressive neuroendocrine skin cancer with limited treatment options. Approximately 80% of MCCs have the Merkel cell polyomavirus (MCPyV) DNA integrated into the host genome (virus-positive: VP-MCC) and viral oncogenes drive oncogenesis. The remaining MCCs are virus-negative (VN-MCC) and are caused by UV mutagenesis. […] Using cell viability as a readout (CellTiter-Glo assay) we found both overlapping and distinct drugs that can be repurposed for the treatment of VP-MCC and VN-MCC. […]
Inconclusive results are not listed. Active and inactive are the calls of the source. Calls follow the shape of the dose curve; as a rule, active = well fitted inhibition curve with a large enough effect; inconclusive = small, poorly fitted or top-dose-only effect; inactive = flat fitted curve, though single readings scatter.

molecule: Nc1cccc2c1C(=O)N(C1CCC(=O)NC1=O)C2=O (stereo not drawn)
Potency: inactive
--
molecule: O=C(C=Cc1ccc(CN(CCO)CCc2c[nH]c3ccccc23)cc1)NO
Potency: 105 nM (active)
--
molecule: O=S(=O)(O)CCSSCCS(=O)(=O)O
Potency: inactive

----------
assayComment: High-throughput drug toxicity screening in the BPDCN cell line Cal-1 (AID 1224825);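 note: cells exposed to compounds for 48 h; 100% = DMSO and 0% = bortezomib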
conditionParameters: Cal-1 BPDCN cell viability, qHTS; at 45.8 µM (top of the series) unless noted
With a cut-off of 10%, any viability (% of control) strictly below it is called Y; any viability (% of control) meeting it or above is called N.

Example results:
molecule: CCOC(=O)N1CCN([N+]([O-])=NOc2ccc([N+](=O)[O-])cc2[N+](=O)[O-])CC1
assignedCategory: N
//
molecule: COc1ccc(S(=O)(=O)Nc2cccnc2Nc2ccc(O)cc2)cc1
assignedCategory: Y
//
molecule: O=C1NC(=O)[C@@H](c2cn3c4c(cccc24)CCC3)[C@H]1c1c[nH]c2ccccc12
assignedCategory: N
//
molecule: CON=C(C(=O)N[C@@H]1C(=O)N2C(C(=O)O)=C(CSC(=O)c3ccco3)CS[C@H]12)c1csc(N)n1
assignedCategory: Y
//
molecule: C=C1C(=O)O[C@H]2[C@@H]1CCC(C)=CCC[C@@]1(C)O[C@@H]21
assignedCategory: Y
//
molecule: CC(=O)NC(CS)C(=O)O (stereo unspecified)
assignedCategory: N
//
molecule: COc1cc(C)c(C=CC(C)=CC=CC(C)=CC(=O)O)c(C)c1C
assignedCategory: N
//
molecule: C#CCC(Cc1cnc2nc(N)nc(N)c2n1)c1ccc(C(=O)N[C@@H](CCC(=O)O)C(=O)O)cc1 (stereo partly specified)
assignedCategory: N
//
molecule: O=C(O)C[C@H](O)C[C@H](O)C=Cc1c(C2CC2)nc2ccccc2c1-c1ccc(F)cc1
assignedCategory: N
//
molecule: CCN(CC)Cc1ccc2cc(COC(=O)Nc3ccc(C(=O)NO)cc3)ccc2c1
assignedCategory: Y

Task: Say whether its viability (% of control) is strictly beneath 10%. Entry: CN(C)CCN1C(=O)c2cccc3cc(N)cc(c23)C1=O
Result: Y

Task: Say whether its viability (% of control) is strictly beneath 10%. Entry: Cc1ccccc1C(=O)Nc1ccc(C(=O)N2CCCC(O)c3cc(Cl)ccc32)c(C)c1 (stereo unspecified)
Result: N

Task: Say whether its viability (% of control) is strictly beneath 10%. Entry: Cc1ccc([N+](=O)[O-])cc1S(=O)(=O)N(C)N=Cc1cnc2ccc(Br)cn12
Result: Y

Task: Say whether its viability (% of control) is strictly beneath 10%. Entry: NC(=O)Nc1sc(-c2ccc(F)cc2)cc1C(N)=O
Result: Y

Task: Say whether its viability (% of control) is strictly beneath 10%. Entry: Oc1cc2c(cc1O)C1c3ccc(O)c(O)c3OCC1(O)C2 (stereo unspecified)
Result: N

Task: Say whether its viability (% of control) is strictly beneath 10%. Entry: CC(C)n1cnc2c(NCCc3ccc(O)cc3)nc(-c3csc4ccccc34)nc21
Result: Y

Task: Say whether its viability (% of control) is strictly beneath 10%. Entry: CCN(C(=O)c1c(O)c2c(Cl)cccc2n(C)c1=O)c1ccccc1
Result: N

Task: Say whether its viability (% of control) is strictly beneath 10%. Entry: Nc1ccc(C(=O)Nc2cccc(-c3nc(N4CCOCC4)c4oc5ncccc5c4n3)c2)cn1
Result: Y

----------
assayComment: Quantitative High-Throughput drug screen in 47 multiple myeloma cell lines against the NCATS MIPE library collection: PCM6_Riken cell viability assay (AID 1919870); note: nearly all actives have a fitted effect of over 30% in size
conditionParameters: CellTiter-Glo ATP, 48 h; series mostly up to 45.8 µM
Results filed as inconclusive are left out. Activity calls are given as the source filed them. Calls follow the shape of the dose curve; as a rule, active = well fitted cell-killing curve with a large enough effect; inconclusive = small, poorly fitted or top-dose-only effect, or effect the other way; inactive = no such curve, though single readings can be large or run the other way.
Answer with one of the outcomes given here: active, inactive

Example results:
compound: C=Cc1c(C)c2cc3nc(cc4[nH]c(cc5nc(cc1[nH]2)C(C)=C5CCC(=O)O)c(CCC(=O)OC)c4C)[C@@]1(C)C3=CC=C(C(=O)OC)[C@H]1C(=O)OC
assignedCategory: active
//
compound: CCCc1nc(C(C)(C)O)c(C(=O)O)n1Cc1ccc(-c2ccccc2-c2nn[nH]n2)cc1
assignedCategory: inactive
//
compound: CCCNC(=O)[C@H]1O[C@H]1C(=O)N[C@H](C(=O)N1CCC[C@@H]1C(=O)OC)C(C)CC (some centres not stated)
assignedCategory: active

Task: What is the recorded call for this compound in the test? CC(Oc1ccc(O)cc1)(P(=O)(O)O)P(=O)(O)O
Result: inactive

Task: What is the recorded call for this compound in the test? CC[C@H](CC[C@@H](C)[C@H]1CC[C@H]2[C@@H]3CC=C4C[C@@H](O)CC[C@]4(C)[C@@H]3CC[C@]12C)C(C)C
Result: inactive

Task: What is the recorded call for this compound in the test? Cc1cc(C(=O)NOCCO)c(Nc2ccc(I)cc2F)n(C)c1=O
Result: inactive

Task: What is the recorded call for this compound in the test? C[N+]1(C)[C@@H]2C[C@@H](OC(=O)C(O)(c3cccs3)c3cccs3)C[C@H]1[C@@H]1O[C@@H]12
Result: inactive

Task: What is the recorded call for this compound in the test? OCCNC1CCCc2c1[nH]c1ccc(-c3ccccc3)cc21 (configuration not stated)
Result: active

Task: What is the recorded call for this compound in the test? O=C1NC(=O)[C@@H](c2cn3c4c(cccc24)CCC3)[C@H]1c1c[nH]c2ccccc12
Result: active
